# Run Conditions: in methyl acetate, 303.15 K
Measured Quantity: solubility (mole fraction)
Give the figure by itself; no unit, no explanation.

Prompt: I am curious: what solubility (mole fraction) value has been reported for COc1ccc2[nH]cc(CCNC(C)=O)c2c1 ?
Response: 0.0112

###

# Run Conditions: in n-propanol, 298.15 K
Measured Quantity: solubility (mole fraction)
// no unit string in output, number only

Prompt: Look up solubility (mole fraction): COc1ccc2[nH]cc(CCNC(C)=O)c2c1
Response: 0.0197

###

# Run Conditions: in n-butanol, 308.15 K
Measured Quantity: solubility (mole fraction)

Prompt: Any idea what its solubility (mole fraction) is? The molecule is COc1ccc2[nH]cc(CCNC(C)=O)c2c1
Response: 0.0257
